Tested on: MT-4 cells
Condition parameters: mock-infected MT-4 cells, MTT
Rule: CD50: Cytotoxic concentration that causes death of MT-4 cells by 50% below 8 µg/mL gives criterion met, anything at or above gives criterion not met.

Solved entries:
>  <Compound>
CC(=O)OCc1cncc(C)c1Cn1c(C(=O)c2cc(C)cc(C)c2)c(C(C)C)c(=O)[nH]c1=O [Compound 73]

>  <Class name>
criterion not met

$$$$
>  <Compound>
Cc1cc(C)cc(C(=O)c2c(C(C)C)c(=O)[nH]c(=O)n2Cc2cc(F)cc(F)c2)c1 [Compound 43]

>  <Class name>
criterion met

$$$$
>  <Compound>
Cc1cc(C)cc(C(=O)c2c(C(C)C)c(=O)[nH]c(=O)n2Cc2cc[n+]([O-])cc2)c1 [Compound 68]

>  <Class name>
criterion not met

$$$$

Next:
# check: CD50: Cytotoxic concentration that causes death of MT-4 cells by 50% < 8 µg/mL for CCc1c(Nc2cc(C)cc(C)c2)n(Cc2ccncc2)c(=O)[nH]c1=O [Compound 67]
criterion not met

----------
In this section, each of the compounds is paired with its reported CD50: Cytotoxic concentration that causes death of MT-4 cells by 50%.
Tested on: MT-4 cells
Condition parameters: mock-infected MT-4 cells, MTT
The reply should contain only the number, in µg/mL.

>  <Compound>
Cc1cc(Cl)cc(C(=O)c2c(C(C)C)c(=O)[nH]c(=O)n2Cc2c(C)c[n+]([O-])cc2C)c1 [Compound 71]

>  <Unit string>
µg/mL

>  <Val>
25.44

$$$$
>  <Compound>
CC(=O)OCc1cnccc1Cn1c(C(=O)c2cc(C)cc(C)c2)c(C(C)C)c(=O)[nH]c1=O [Compound 72]

>  <Unit string>
µg/mL

>  <Val>
38.49

$$$$
>  <Compound>
COC(=O)c1cnccc1Cn1c(C(=O)c2cc(C)cc(C)c2)c(C(C)C)c(=O)[nH]c1=O [Compound 78]

>  <Unit string>
µg/mL

>  <Val>
40.79

$$$$
>  <Compound>
Cc1cc(Cl)cc(C(=O)c2c(C(C)C)c(=O)[nH]c(=O)n2Cc2ccncc2C(N)=O)c1 [Compound 80]

>  <Unit string>
µg/mL

>  <Val>
27.83

$$$$
>  <Compound>
Cc1cc(C)cc(C(=O)c2c(C(C)C)c(=O)[nH]c(=O)n2Cc2ccc(N)cc2)c1 [Compound 81]

>  <Unit string>
µg/mL

>  <Val>
9.63

$$$$

In one line, give reported CD50: Cytotoxic concentration that causes death of MT-4 cells by 50% of the entry Cc1cc(C)cc(C(=O)c2c(C(C)C)c(=O)[nH]c(=O)n2Cc2cccnc2)c1 [Compound 2] .
27.2

In one line, give reported CD50: Cytotoxic concentration that causes death of MT-4 cells by 50% of the entry Cc1cc(Cl)cc(C(=O)c2c(C(C)C)c(=O)[nH]c(=O)n2Cc2c(C)cncc2CO)c1 [Compound 77] .
23.51

----------
Test system: MT-4 cells
Condition parameters: mock-infected MT-4 cells, MTT
In this section, each of the compounds is paired with its reported CD50: Cytotoxic concentration that causes death of MT-4 cells by 50%.
The reply should contain only the number, in µg/mL.

Use the examples below as a reference point.
>  <Smiles repr>
Cc1cc(C)cc(C(=O)c2c(C(C)C)c(=O)[nH]c(=O)n2Cc2c(C)cncc2CO)c1

>  <Val>
38.39

$$$$
>  <Smiles repr>
Cc1cc(C)cc(C(=O)c2c(C(C)C)c(=O)[nH]c(=O)n2Cc2cc(C(F)(F)F)cc(C(F)(F)F)c2)c1

>  <Val>
8.17

$$$$
>  <Smiles repr>
Cc1cc(C)cc(C(=O)c2c(C(C)C)c(=O)[nH]c(=O)n2Cc2ccccn2)c1

>  <Val>
26.1

$$$$
>  <Smiles repr>
Cc1cc(C)cc(C(=O)c2c(C(C)C)c(=O)[nH]c(=O)n2Cc2ccncc2)c1

>  <Val>
22.6

$$$$
>  <Smiles repr>
Cc1cc(C)cc(C(=O)c2c(C(C)C)c(=O)[nH]c(=O)n2Cc2cc[n+]([O-])cc2C)c1

>  <Val>
48.25

$$$$

In one line, give reported CD50: Cytotoxic concentration that causes death of MT-4 cells by 50% of the entry Cc1cc(C)cc(C(=O)c2c(C(C)C)c(=O)[nH]c(=O)n2Cc2ccncc2CO)c1 .
42.06

In one line, give reported CD50: Cytotoxic concentration that causes death of MT-4 cells by 50% of the entry Cc1cc(C)cc(C(=O)c2c(C(C)C)c(=O)[nH]c(=O)n2Cc2c(C)c[n+]([O-])cc2C)c1 .
25.84
